Ki overview
# ASSAY_TARGET: UniProt:P00734
# ASSAY_REMARKS: Inhibition of amidolytic activity of human thrombin (Ki, fluorogenic substrate Tos-Gly-Pro-Arg-AMC)
# Type: biochemical
# CONDITIONS: Table 1, read-out: Ki (inhibitory dissociation constant for human thrombin)
MEASURED_METRIC: Ki (µM)

compound="N=C(N)NCCCC(NC(=O)[C@@H]1CSC2CC[C@@H](CC3CCCCC3)C(=O)N21)C(=O)CSCC(=O)O (stereo partly shown)" measured_metric=Ki observed=32.7
compound="COC(=O)CCC(=O)C(CCCNC(=N)N)NC(=O)[C@@H]1CSC2CC[C@@H](Cc3ccccc3)C(=O)N21 (stereo partly shown) [Compound 0015]" measured_metric=Ki observed=16
compound="CC(SCC(=O)C(CCCNC(=N)N)NC(=O)[C@@H]1CSC2CC[C@@H](CC3CCCCC3)C(=O)N21)C(=O)O (stereo partly shown)" measured_metric=Ki observed=4.4
compound="CCCC(=O)C(CCCNC(=N)N)NC(=O)[C@@H]1CSC2CC[C@@H](Cc3ccccc3)C(=O)N21 (stereo partly shown)" measured_metric=Ki observed=4
compound="N=C(N)NCCCC(NC(=O)[C@@H]1CSC2CC[C@@H](CC3CCCCC3)C(=O)N21)C(=O)C[n+]1ccc2ccccc2c1 (stereo partly shown)" measured_metric=Ki observed=0.048
compound="N=C(N)NCCC[C@H](NC(=O)[C@@H]1CSC2CC[C@@H](CC3CCCCC3)C(=O)N21)C(=O)N1CCCC[C@@H]1C(=O)O (stereo partly shown)" measured_metric=Ki observed=8.6
compound="CCCCC(=O)C(CCCNC(=N)N)NC(=O)[C@@H]1CSC2CC[C@@H](Cc3ccccc3)C(=O)N21 (stereo partly shown)" measured_metric=Ki observed=4.6

====

Reported pIC50 values follow for various compounds
# ASSAY_TARGET: human thrombin (Homo sapiens)
# ASSAY_REMARKS: dTT assay (fibrin clotting assay, human thrombin and bovine fibrinogen)
# Type: biochemical
# CONDITIONS: Table 1; concentration required to double the clotting time; read-out: dTT IC50
# Text: The clotting time was plotted against the inhibitor concentrations and the IC50 was estimated as the inhibitor concentration required to double the clotting time relative to the control.
pIC50: −log10 of the molar value.
MEASURED_METRIC: pIC50

compound="N=C(N)NCCCC(NC(=O)[C@@H]1CSC2CC[C@@H](CC3CCCCC3)C(=O)N21)C(=O)CCC(=O)N[C@@H](Cc1ccccc1)C(=O)N[C@@H](CCCNC(=N)N)C(N)=O (some centres unmarked) [Compound 0090]" qualifier_operator== observed=6.48
compound="CC(SCC(=O)C(CCCNC(=N)N)NC(=O)[C@@H]1CSC2CC[C@@H](CC3CCCCC3)C(=O)N21)C(=O)O (some centres unmarked) [Compound 0070]" qualifier_operator== observed=4.60
compound="COC(=O)CCC1(C(CCCNC(=N)N)NC(=O)[C@@H]2CSC3CC[C@@H](CC4CCCCC4)C(=O)N32)SCCS1 (some centres unmarked) [Compound 0025]" qualifier_operator=< observed=3.20
compound="N=C(N)NCCCC(NC(=O)[C@@H]1CSC2CC[C@@H](Cc3ccccc3)C(=O)N21)C1(CCC(N)=O)SCCS1 (some centres unmarked) [Compound 0035]" qualifier_operator== observed=3.50
compound="COC(=O)CCC(=O)C(CCCNC(=N)N)NC(=O)[C@@H]1CSC2CC[C@@H](Cc3ccccc3)C(=O)N21 (some centres unmarked) [Compound 0100]" qualifier_operator== observed=3.78
compound="N=C(N)NCCCC(NC(=O)[C@@H]1CSC2CC[C@@H](CC3CCCCC3)C(=O)N21)C(=O)CSCC(=O)O (some centres unmarked) [Compound 0065]" qualifier_operator== observed=4.38
compound="COC(=O)CCC(=O)C(CCCNC(=N)N)NC(=O)[C@@H]1CSC2CC[C@@H](Cc3ccccc3)C(=O)N21 (some centres unmarked) [Compound 0015]" qualifier_operator== observed=3.79
compound="N=C(N)NCCC[C@H](NC(=O)[C@@H]1CSC2CC[C@@H](CC3CCCCC3)C(=O)N21)C(=O)N1CCCC[C@@H]1C(=O)O (some centres unmarked) [Compound 0030]" qualifier_operator== observed=4.17
compound="N=C(N)NCCCC(NC(=O)[C@@H]1CSC2CC[C@@H](CC3CCCCC3)C(=O)N21)C(=O)C[n+]1ccc2ccccc2c1 (some centres unmarked) [Compound 0080]" qualifier_operator== observed=6.43
compound="N=C(N)NCCC[C@H](NC(=O)[C@@H]1CSC2CC[C@@H](CC3CCCCC3)C(=O)N21)C(=O)N1CCC(C(N)=O)CC1 (some centres unmarked) [Compound 0045]" qualifier_operator== observed=3.38
compound="CCCC(=O)C(CCCNC(=N)N)NC(=O)[C@@H]1CSC2CC[C@@H](Cc3ccccc3)C(=O)N21 (some centres unmarked) [Compound 0005]" qualifier_operator== observed=4.33
compound="N=C(N)NCCCC(NC(=O)[C@@H]1CSC2CC[C@@H](CC3CCCCC3)C(=O)N21)C(=O)Cc1ccccc1 (some centres unmarked) [Compound 0020]" qualifier_operator== observed=4.66
compound="N=C(N)NCCC[C@H](NC(=O)[C@@H]1CSC2CC[C@@H](CC3CCCCC3)C(=O)N21)C(=O)N1CCCC(C(N)=O)C1 (some centres unmarked) [Compound 0040]" qualifier_operator== observed=3.68
compound="CCCCC(=O)C(CCCNC(=N)N)NC(=O)[C@@H]1CSC2CC[C@@H](Cc3ccccc3)C(=O)N21 (some centres unmarked) [Compound 0010]" qualifier_operator== observed=4.05

Values compiled from patent US6057314A.
